biological target: Hck (UniProt P08631); test: phosphorylation enrichment, bacterial display (enrichment ratio); higher = better substrate or ligand; peptides without Tyr show the background
Sequence (P08631 whole entry, looked up): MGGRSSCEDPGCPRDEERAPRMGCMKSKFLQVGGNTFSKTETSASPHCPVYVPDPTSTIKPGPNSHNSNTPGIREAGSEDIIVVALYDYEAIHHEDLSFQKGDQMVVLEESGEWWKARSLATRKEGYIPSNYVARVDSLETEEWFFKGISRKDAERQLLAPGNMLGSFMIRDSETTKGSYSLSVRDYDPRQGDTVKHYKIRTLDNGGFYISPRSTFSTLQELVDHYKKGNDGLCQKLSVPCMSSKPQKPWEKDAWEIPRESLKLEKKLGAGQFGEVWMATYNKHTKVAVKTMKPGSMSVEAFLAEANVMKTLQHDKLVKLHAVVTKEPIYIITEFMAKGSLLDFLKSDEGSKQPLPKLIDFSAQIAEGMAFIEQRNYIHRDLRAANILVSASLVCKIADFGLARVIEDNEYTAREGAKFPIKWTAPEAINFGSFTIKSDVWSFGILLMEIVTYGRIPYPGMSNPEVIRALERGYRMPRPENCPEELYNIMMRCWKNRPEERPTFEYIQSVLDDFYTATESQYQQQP
Lab note: compare phosphorylation enrichment against 0.5. Equal or greater, write yes. Smaller, write no.

>>> cat("MGCVNYGAYIN [GLB1_Y485_R482C]")
"yes"
>>> cat("RLEGVYGNNID [PTEN_Y46_R47G]")
"yes"
>>> cat("LFNQDYPIHCV [GATM_Y227_S231C_YF]")
"yes"
>>> cat("QKDTFYGLRSL [IGSF10_Y126]")
"yes"
>>> cat("GTSLIYWTLFT [G6PC3_Y214]")
"yes"
>>> cat("VPLLEYYWDIF [CDAN1_Y712_R714W]")
"yes"
>>> cat("FPPISYLNAIS [MVD_Y276]")
"no"
>>> cat("WQQQSYLYSGI [CTNNB1_Y30_D32Y]")
"yes"
>>> cat("IEPVIYVVQRR [ANOS1_Y217]")
"no"
>>> cat("RTLIRYANLSN [BEST1_Y131_G135S]")
"yes"
>>> cat("KVPAIYGVGTR [CPS1_Y162_D165G]")
"yes"
>>> cat("EEAAGYAQESQ [CAMKV_Y491]")
"yes"
>>> cat("ISNATYKEIGL [FLT1_Y199]")
"no"
>>> cat("CTTLHYNFMCN [TP53_Y234_I232L_YF]")
"no"
>>> cat("VSYGEYRYRSV [CFTR_Y515_D513G]")
"yes"
>>> cat("KQELVYPNKKL [OPTN_Y356_T357P]")
"no"
>>> cat("TMKSHYMELYD [BBS2_Y644_R643H]")
"yes"
>>> cat("FSPCDYQPCLA [TNS1_Y798_Y796C_YF]")
"yes"
>>> cat("ERLLDYTRTVQ [INPP5E_Y439]")
"no"
>>> cat("RHTRSYDFTEG [FGF7_Y56_M59T_YF]")
"no"
>>> cat("NGVSFYINLCQ [IGF2R_Y2025_YF]")
"yes"
>>> cat("SDVCMYRKNIF [SYNE2_Y570_YF]")
"no"
>>> cat("LRGEDYGFSVD [PRKCI_Y430]")
"yes"
>>> cat("LKRIAYFLCLL [LGI1_Y21]")
"no"
>>> cat("ISRVLYPNDNF [PYGM_Y281]")
"no"
>>> cat("CDGKEYDPVEA [MAPRE2_Y167_Y162C]")
"yes"
>>> cat("ETELPYQELQG [TYROBP_Y91_S89L]")
"yes"
>>> cat("KKIMGYSIRTI [IDS_Y490_I485K]")
"no"
>>> cat("MARDISRASFF [ALK_Y1278_Y1278S_YF]")
"no"
>>> cat("IKSSIYDNRKE [ARAP2_Y380]")
"yes"
>>> cat("LKMLVYLDMSK [LRRC7_Y234]")
"yes"
>>> cat("SVSNNYIQTLG [CTNND1_Y174]")
"no"
>>> cat("NNDLCYWVLEL [IARS1_Y434_P437L]")
"yes"
>>> cat("RTLSEYARRHV [RERE_Y1259_P1262R]")
"no"
>>> cat("GDGRFYMKEAI [PGM1_Y66]")
"no"
>>> cat("QFNMQYSSSAA [ERBB2IP_Y981_I979M_YF]")
"no"
>>> cat("KAVLHYKHQNQ [MTOR_Y1804_E1799K]")
"no"
>>> cat("PVKDPYVMFPQ [PLEKHG2_Y489]")
"yes"
>>> cat("FDKPVYQKTTE [LDLR_Y828_N825K]")
"no"
>>> cat("AGLEDYDRLRP [RAC3_Y64_Q61L]")
"yes"
>>> cat("QRIHNYFEHRF [HCN4_Y554_D553N_YF]")
"no"
>>> cat("FLNSSYINIST [IL23R_Y178_T175N_YF]")
"no"
>>> cat("QTPVLYAMLYH [MPZ_Y220_D224Y]")
"yes"
>>> cat("GENTMYAQVFN [LY9_Y603]")
"yes"

====

biological target: Fyn (UniProt P06241); experiment: phosphorylation enrichment, bacterial display (enrichment ratio); higher = better substrate or ligand; peptides without Tyr show the background
Sequence (P06241 whole entry, looked up): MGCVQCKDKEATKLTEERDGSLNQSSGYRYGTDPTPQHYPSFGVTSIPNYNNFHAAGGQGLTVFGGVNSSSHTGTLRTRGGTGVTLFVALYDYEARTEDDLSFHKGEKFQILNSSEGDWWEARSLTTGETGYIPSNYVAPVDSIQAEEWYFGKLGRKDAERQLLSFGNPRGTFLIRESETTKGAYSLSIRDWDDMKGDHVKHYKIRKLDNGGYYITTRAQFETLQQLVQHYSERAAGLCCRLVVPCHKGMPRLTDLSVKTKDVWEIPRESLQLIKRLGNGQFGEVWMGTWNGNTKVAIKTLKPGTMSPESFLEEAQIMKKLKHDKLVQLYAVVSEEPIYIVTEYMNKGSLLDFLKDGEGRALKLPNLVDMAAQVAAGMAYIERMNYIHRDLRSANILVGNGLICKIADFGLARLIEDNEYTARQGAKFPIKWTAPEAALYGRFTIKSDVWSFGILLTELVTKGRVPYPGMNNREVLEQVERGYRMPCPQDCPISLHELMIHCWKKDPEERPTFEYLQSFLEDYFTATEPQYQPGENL
Would you mind sorting the entries by phosphorylation enrichment according to these classes? one (below 0.6), two (0.6 to below 0.9), three (0.9 or more)

>>> cat("PIFEGYGLPHA [ACTA1_Y171_A172G_YF]")
"two"
>>> cat("WIPIQYPIISE [NOG_Y222]")
"one"
>>> cat("LPENPYHSRPR [NDUFA8_Y142]")
"two"
>>> cat("LPKEQYLFTKE [AFG3L2_Y614_YF]")
"three"
>>> cat("GRSTFYWPSPR [GAGE12J_Y10_R13S_YF]")
"one"
>>> cat("AMGPVYQAAAL [HYOU1_Y421_A419P]")
"three"
>>> cat("LVTRSYLLGNS [LMNA_Y646]")
"two"
>>> cat("EYFDGYWGYSV [ITGA2B_Y265]")
"three"
>>> cat("LPSKDYAEVGR [HP_Y272]")
"two"
>>> cat("HFGCIYHGTLL [MET_Y1093_V1092I]")
"three"
>>> cat("PAGSGYPAYLG [ATP6V1A_Y374_D371G]")
"one"
>>> cat("EEGENYQKGER [CHGB_Y173]")
"one"
>>> cat("FFRKVYHLASV [RBL1_Y796_YF]")
"one"

====

biological target: Fes (UniProt P07332); test: phosphorylation enrichment, bacterial display (enrichment ratio); higher = better substrate or ligand; peptides without Tyr show the background
Sequence (P07332 whole entry, looked up): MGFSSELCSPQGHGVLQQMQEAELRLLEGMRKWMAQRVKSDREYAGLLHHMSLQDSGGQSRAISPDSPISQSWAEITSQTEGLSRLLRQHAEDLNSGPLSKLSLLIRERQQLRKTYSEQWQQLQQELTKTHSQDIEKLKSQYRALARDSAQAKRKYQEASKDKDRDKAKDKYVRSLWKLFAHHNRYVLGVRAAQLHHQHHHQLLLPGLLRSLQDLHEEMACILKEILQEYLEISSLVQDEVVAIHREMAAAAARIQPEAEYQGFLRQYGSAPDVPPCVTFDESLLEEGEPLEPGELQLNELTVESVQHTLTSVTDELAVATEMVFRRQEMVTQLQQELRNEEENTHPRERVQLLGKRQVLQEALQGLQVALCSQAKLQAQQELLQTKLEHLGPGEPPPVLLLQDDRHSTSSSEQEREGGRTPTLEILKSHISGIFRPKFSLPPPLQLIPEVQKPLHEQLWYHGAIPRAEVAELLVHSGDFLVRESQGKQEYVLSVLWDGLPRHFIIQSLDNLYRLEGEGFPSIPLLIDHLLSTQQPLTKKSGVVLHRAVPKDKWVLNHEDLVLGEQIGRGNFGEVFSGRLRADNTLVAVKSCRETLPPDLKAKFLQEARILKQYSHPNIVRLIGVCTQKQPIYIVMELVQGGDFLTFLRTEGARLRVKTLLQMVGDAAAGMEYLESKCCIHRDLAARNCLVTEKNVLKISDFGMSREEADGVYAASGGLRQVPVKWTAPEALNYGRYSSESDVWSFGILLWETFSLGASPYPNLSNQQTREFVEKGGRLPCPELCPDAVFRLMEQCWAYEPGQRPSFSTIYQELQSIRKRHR
measurement.kind: phosphorylation enrichment

>>> readout_value("VYSIDYYRVGG [NTRK2_Y706_T704I]")
0.836
>>> readout_value("QMIETYFDFRV [NSMF_Y506_L511V]")
1.39
>>> readout_value("SCRSKYVGLWG [KCNQ1_Y184_G179S]")
0.984
>>> readout_value("MIRSAYALGGL [CPS1_Y590]")
0.534
>>> readout_value("CNRADYSKLAS [GNE_Y22_P27S]")
0.95
>>> readout_value("TESNNYIFKTL [FAM83B_Y637_YF]")
1.12
>>> readout_value("SEDSEYFKAFE [CASQ2_Y178_YF]")
1.41
>>> readout_value("GRSTYYWPRPR [GAGE12J_Y10]")
0.444
>>> readout_value("QCQLKYSETPF [SIX6OS1_Y129_Y125C]")
1.32
>>> readout_value("SVTCTYSPGLN [TP53_Y126_A129G]")
1.57
>>> readout_value("AGIVVYNIIGW [MYH7_Y588_D587V]")
1.57
>>> readout_value("QEIATYRRLLE [KRT14_Y415]")
0.936
>>> readout_value("SLALFYRNVFH [RBL1_Y792_K794N_YF]")
1.19
>>> readout_value("KGEPQYSSHSS [SIPA1L3_Y1265]")
0.547
>>> readout_value("RIDPDYMGRVR [IGSF9_Y81_V82M]")
0.572

====

molecular target: Grb2 SH2 (UniProt P62993); experiment: SH2 binding enrichment of the phosphorylated peptide, bacterial display (enrichment ratio); higher = better substrate or ligand; peptides without Tyr show the background
Sequence (P62993 whole entry, looked up): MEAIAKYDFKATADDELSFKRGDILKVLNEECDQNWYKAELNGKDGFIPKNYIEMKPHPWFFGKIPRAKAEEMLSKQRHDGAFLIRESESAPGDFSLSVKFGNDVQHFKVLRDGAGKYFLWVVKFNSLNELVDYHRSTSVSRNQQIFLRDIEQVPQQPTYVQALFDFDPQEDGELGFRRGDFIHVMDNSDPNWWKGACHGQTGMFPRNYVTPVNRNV
# SH2 binding enrichment per entry
measurement.kind: SH2 binding enrichment

>>> readout_value("EDDIIYTQDFM [STK11_Y362_T367M]")
0.984
>>> readout_value("EDGRLYAVKCS [PKMYT1_Y136_R140C]")
0.795
>>> readout_value("FDKPVYQKTTE [LDLR_Y828_N825K]")
0.811
>>> readout_value("VSFGEYRFRSV [CFTR_Y515_D513G_YF]")
0.792
>>> readout_value("QLHEHYKIHKE [NSMAF_Y626]")
0.985
>>> readout_value("YSKTQYNQVPR [CXADR_Y318_S323R]")
0.974
>>> readout_value("FRRITYFNWRH [PDE6B_Y556_H557Y_YF]")
0.821
>>> readout_value("PEADKYRLTYA [FGG_Y300]")
0.806
>>> readout_value("FPPDGYSRHCE [CTNND1_Y213_Y217C_YF]")
0.985

====

molecular target: Fyn (UniProt P06241); test: phosphorylation enrichment, bacterial display (enrichment ratio); higher = better substrate or ligand; peptides without Tyr show the background
phosphorylation enrichment values, listed per item
measurement.kind: phosphorylation enrichment

>>> readout_value("TMKSHYMELYD [BBS2_Y644_R643H]")
0.69
>>> readout_value("PSPMPYACCQM [FOXL2_Y215_S217C]")
0.71
>>> readout_value("SHNKYYMLVAR [MFSD8_Y134]")
0.494
>>> readout_value("FHLLPYTIRAM [PARS2_Y93_V95I_YF]")
0.5
>>> readout_value("TFSPPYYHRNC [HGD_Y333_R330S]")
0.5
